TEST SYSTEM: T. gondii ME49Luc in IFN-y HeLa, luciferase, 72 h
METHOD DESCRIPTION: T. gondii growth inhibition with IFN-gamma, dose response, cell-based, ME49Luc, HeLa, luciferase, 72 h (AID 1259418)
Inconclusive results are not listed. Calls of active or inactive are those of the source.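 How the source made its calls: active means fitted half-maximal concentration of signal decrease at or below twice the sample's top tested concentration; inconclusive means flat curve between -70 and -30 percent, or poor fit; inactive means flat within 30 percent, signal rise, or potency above limit.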
Labels: active, inactive

In [3]: df
Out[3]:
                                    compound  class_label
 0  COc1cccc(-c2nc(C)c(-c3ccc(SCc4ccc(F)cc4)nn3)s2)c1       active
 1  Cc1oc(-c2ccccc2)nc1CSc1nc2c(c(=O)[nH]1)CN(Cc1ccccc1)CC2       active
 2  C/C=C/c1ccc([C@H]2[C@H](CO)N3CCCCN(S(=O)(=O)c4ccc(OC)cc4)C[C@@H]23)cc1     inactive
 3     CC(C)COC1CC2(CCN(C(=O)c3cccn3C)CC2)C1       active
 4  CN(C[C@H]1N[C@@H](CO)[C@H]1c1ccc(-c2ccc(F)cc2)cc1)C(=O)C1CCC1       active
 5  CCc1ccc(N2CCC(C(=O)NCCc3c[nH]c4ccc(C)cc34)C2=O)cc1 (centres undefined)       active
 6  Cc1cccc(-c2ccc([C@@H]3[C@@H](CO)N4C(=O)CN(C(=O)c5ccc6c(c5)OCO6)C[C@H]34)cc2)c1       active
 7  O=C1CN(S(=O)(=O)c2cccc(F)c2)C[C@@H]2[C@@H](c3ccc(C4=CCCC4)cc3)[C@H](CO)N12     inactive
 8  COc1cc(NC(=O)Nc2ccc(-c3nc(-c4ccc(C)cc4C)co3)cc2)cc(OC)c1       active
 9  Cc1ccc2[nH]c(C(=O)NCc3cccnc3)c(NC(=O)c3ccc(F)cc3)c2c1       active
10  CCN1C(=O)CCc2cc(NC(=O)Cc3cccc(OC)c3)ccc21       active
11  COc1cccc(-c2ccc3c(c2)[C@H]2[C@H](CCN2S(=O)(=O)c2ccccc2F)[C@H](CO)N3)c1       active
12  COc1ccc(-c2nc(NCC3CCN(CCc4ccc(F)cc4)CC3)c3ccccc3n2)cc1       active
13  CCOc1ccccc1N(Cc1nc(-c2ccccc2)oc1C)S(=O)(=O)c1ccccc1       active
14  CC(C)n1ncc(NC(=O)Cn2ccc(-c3ccc(C(F)(F)F)cc3)n2)n1       active
15  Cc1ccc(C)c(S(=O)(=O)N2CCC3(CC2)NCCN=C3NCc2ccccc2F)c1       active
16  Cc1oc(-c2cccc(Cl)c2)nc1CN(c1ccccc1)S(=O)(=O)c1ccccc1       active
17     COc1ccc(-c2nc(NC3CCCC3)c3ccccc3n2)cc1       active
18  COc1cccc(-c2nc3c(s2)CN(S(=O)(=O)c2ccc(C)cc2)CC3)c1       active
